The entries below are paired with their reported LogP.
test: Log P by HPLC on reversed phase columns (EEC directive 79/831 Annex V.A8; methods [a], [b], [c]); format: physicochemical

Q) Using the record for OC(Cn1cncc1F)c1ccc(Oc2ccc(Br)nc2)nc1C(F)(F)F (centres unmarked) , report its LogP.
A) 1.75^[a]

Q) Try this compound too: CCOC(Cn1cncc1C#N)c1ccc(Oc2ccc(Br)cc2)cc1Br (centres unmarked)
A) 4.64^[a]

====

experiment: Log P by HPLC on reversed phase columns (EEC directive 79/831 Annex V.A8; methods [a], [b], [c]); type: physicochemical; details: reversed phase HPLC column; method [a]: LC-UV, acidic range, 0.1% formic acid in water and acetonitrile as eluent (linear gradient from 10% to 95% acetonitrile)
reported-property: chromatographic logP
// no unit string in output, number only

Worked examples follow.
O=C(Cn1cncc1Br)c1ccc(Oc2ccc(Cl)nc2)cc1Cl [IX-56] : 2.25
O=C(Cn1cncc1Cl)c1ccc(Oc2ccc(OC(F)(F)F)cc2)cc1Cl [IX-09] : 3.37
O=C(Cn1cncc1Br)c1ccc(Oc2ccc(Cl)cn2)cc1Cl [IX-55] : 2.52
N#Cc1cncn1CC(=O)c1ccc(C(F)(F)F)cc1 [IX-117] : 1.99

Q) Tell me the measured chromatographic logP of N#Cc1cncn1CC(=O)c1ccc(Cl)cc1F [IX-147] , please.
A) 1.94

Q) Now this one: N#Cc1cncn1CC(=O)c1ccccc1Br [IX-127]
A) 1.79
